- test_description: supercomplex reporter luminescence per Hoechst cell count – Hoechst nuclei count (AID 1645838);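 note: control cybrid cells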
- details: Cells, luminescence/Hoechst cell count ratio, measured here: cell number, Hoechst nuclei count, library stock concentration (final well concentration not given) 2 mM
The campaign covered roughly 2,000 compounds. About 100 (5%) were called active. The sample holds actives, similar compounds and a random draw of the others, so the mix is not that of the screen.
Exercise: state measured cell count for each of the compounds provided.
Numbers only.

# compound, cell count
data = [
    ("NCCCCN(Cc1nc2ccccc2[nH]1)C1CCCc2cccnc21 (stereo unspecified)", 5630),
    ("CCCCN(Cc1ccc(C(=O)NO)cc1)C(=O)Nc1ccccc1", 4990),
]

// each compound listed below needs its cell count
1. CC(C)(C)OC(=O)N1CCC(OC2CCNCC2)CC1
2. NCC(=O)Nc1ccc(-n2nc(C(F)(F)F)cc2-c2ccc3c(ccc4ccccc43)c2)cc1

# output
[4640, 2710]

----------
Please respond with reported z-score for every item in the list.
- test_description: supercomplex reporter luminescence per Hoechst cell count – Hoechst nuclei count (AID 1645838);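 note: control cybrid cells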;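 for z-score: higher means more mitochondrial supercomplex formation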
- details: Cells, luminescence/Hoechst cell count ratio, stronger effect = higher value
Among all 2,000 compounds or so, about 100 (5%) were called active. The sample as a whole holds a higher share of actives than the screen did.
Give bare numbers.

# compound, z-score
measured = [
    ("CC/C=C\\C/C=C\\C/C=C\\C/C=C\\C/C=C\\C/C=C\\CCC(=O)NCCO", -0.366),
    ("CCCCCCCC/C=C\\CCCCCCCCCCCC(N)=O", -0.128),
    ("CC(C)CCOc1ccc(N)cc1", -0.619),
    ("CCCCCCCCCCCC(=O)O", 0.0111),
    ("O=P(O)(O)O[C@H]1[C@@H](O)[C@H](O)[C@@H](OP(=O)(O)O)[C@H](OP(=O)(O)O)[C@H]1O", -0.14),
    ("Cc1cc(C)c(/C=C2\\C(=O)Nc3ccccc32)[nH]1", -0.647),
    ("CCCCCCCCCCCCCCCC(=O)NC(C)C", -0.641),
    ("C=C1C(=O)O[C@H](CCCCCCCC)[C@H]1C(=O)O", -0.4),
    ("O=C1NC(=O)/C(=C/c2ccc3c(c2)OC(F)(F)O3)S1", 0.349),
    ("CCCCCC(O)/C=C/C=O (configuration not stated)", -0.635),
]

Could I get z-score for every one of these entries?
1. CCCCC[C@@H](O)/C=C/[C@@H]1[C@@H](C/C=C\CCCC(=O)O)[C@@H](O)C[C@H]1O
2. CC(=O)Nc1ccc(NC(=S)NC(=O)c2ccc(C(C)(C)C)cc2)cc1
3. CCCCC[C@H](O)/C=C/[C@@H]1[C@H](CCCCCCC(=O)O)[C@@H](O)C[C@H]1O
4. CCCCC[C@H](O)/C=C/[C@H]1C(=O)C=C[C@@H]1C/C=C\CCCC(=O)O

# output
[-0.443, 1.3, 0.0726, -0.0566]

For every item below, please supply its z-score.
1. CCCCCCCCCCCCCCCC(=O)NC[C@@H](C)O
2. CCCC/C=C/C=C/C=C\CCCCCCCC(=O)OC
3. Cc1nnsc1C(=O)Nc1ccc(-n2nc(C(F)(F)F)cc2C(F)(F)F)cc1

# output
[-0.297, 0.121, 0.284]

List the reported z-score of each compound below.
1. CCCCCC(=O)/C=C/C=O
2. CCCCC(C)(C)[C@H](O)/C=C/[C@H]1[C@H](O)CC(=O)[C@@H]1CCCCCCC(=O)O
3. CCCCCCCCCCCCCCCC(=O)OC[C@H](COP(=O)([O-])OCC[N+](C)(C)C)OC(=O)CCCCCCCC(=O)/C=C/C(=O)O

# output
1: 3.38; 2: -0.22; 3: -0.738

Hi team, please reply with z-score for each item in this list.
1. O=C1NC(=O)/C(=C/c2ccc3nccnc3c2)S1
2. CCN(CC)C(=O)CCC/C=C\C[C@@H]1[C@@H](/C=C/[C@@H](O)CCc2ccccc2)[C@H](O)C[C@@H]1O

# output
0.662
0.309
